System: Candida tropicalis ATCC 750
Reported MIC is given for each of the following molecules.
Numeric only. Scale: µg/mL

molecule | MIC, µg/mL
O=C(/C=C/c1ccccc1)c1cccc(O)c1 [3′-HC, 3′-hydroxychalcone] | 31.3
C[C@@H]1[C@H](O)[C@@H](C)/C=C/C=C/C=C/C=C/C=C/C=C/C=C/[C@H](O[C@@H]2O[C@H](C)[C@@H](O)[C@H](N)[C@@H]2O)C[C@@H]2O[C@](O)(C[C@@H](O)C[C@@H](O)[C@H](O)CC[C@@H](O)C[C@@H](O)CC(=O)O[C@H]1C)C[C@H](O)[C@H]2C(=O)O [AMB, amphotericin B, reference compound] | 0.05
Clc1ccccc1C(c1ccccc1)(c1ccccc1)n1ccnc1 [CTZ, clotrimazole, reference compound] | 0.01
OC(Cn1cncn1)(Cn1cncn1)c1ccc(F)cc1F [FCZ, Fluconazole, reference compound] | 0.5

API: value(readout= MIC, system= Candida tropicalis ATCC 750, query= O=C(/C=C/c1ccccc1O)c1ccccc1 [2-HC, 2-hydroxychalcone] )
31.3
